# Test system: Erwinia
# METHOD_DESCRIPTION: Antibacterial activity against Erwinia aroideae at 50 mg/L after 24 hrs by agar well diffusion method
# Type: functional
# APPLIED_CONDITIONS: read-out: DIZ
# zone of inhibition at 50 µg/mL per entry
ASSAY_METRIC: zone of inhibition at 50 µg/mL

1. CCn1cc(C(=O)O)c(=O)c2cc(F)c(N3CCN(C(=O)/C=C/c4ccc(Cl)cc4Cl)CC3)cc21	2.92 mm
2. CCn1cc(C(=O)O)c(=O)c2cc(F)c(N3CCN(C(=O)c4c(C)oc(C)c4C)CC3)cc21	12.4 mm
3. CCn1cc(C(=O)O)c(=O)c2cc(F)c(N3CCN(C(=O)/C=C/c4ccc(OC)cc4)CC3)cc21	8.02 mm
4. CCn1cc(C(=O)O)c(=O)c2cc(F)c(N3CCN(C(=O)COc4ccccc4OC)CC3)cc21	12.9 mm
5. CCn1cc(C(=O)O)c(=O)c2cc(F)c(N3CCNCC3)cc21 [NORFLOXACIN]	21.5 mm
6. CCn1cc(C(=O)O)c(=O)c2cc(F)c(N3CCN(C(=O)Cc4cccc5ccccc45)CC3)cc21	10.4 mm
7. CCn1cc(C(=O)O)c(=O)c2cc(F)c(N3CCN(C(=O)c4ccccc4)CC3)cc21	17.9 mm
8. CCn1cc(C(=O)O)c(=O)c2cc(F)c(N3CCN(C(=O)c4ccco4)CC3)cc21	13.8 mm

These measurements were taken from ChEMBL document CHEMBL1155265.
